Taken from patent US20170095565A1.

Molecular target: μ-Opiate Receptors (Homo sapiens)
Sequence (P35372 whole entry): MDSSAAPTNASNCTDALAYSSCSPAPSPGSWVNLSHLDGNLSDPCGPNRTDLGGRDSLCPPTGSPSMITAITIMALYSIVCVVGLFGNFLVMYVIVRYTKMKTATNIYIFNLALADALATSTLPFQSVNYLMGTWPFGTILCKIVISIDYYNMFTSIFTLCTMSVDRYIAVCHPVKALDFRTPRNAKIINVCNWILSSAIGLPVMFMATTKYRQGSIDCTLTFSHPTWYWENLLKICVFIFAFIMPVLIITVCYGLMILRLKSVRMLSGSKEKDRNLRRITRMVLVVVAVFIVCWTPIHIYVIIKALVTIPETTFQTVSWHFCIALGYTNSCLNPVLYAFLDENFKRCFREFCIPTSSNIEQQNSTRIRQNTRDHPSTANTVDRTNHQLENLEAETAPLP
Test: biochemical
Assay type: biochemical
Conditions: μ-opiate receptors, in-vitro
Strictly below 7 nM in EC50: yes (1). Otherwise: no (0).

{"compound": "C=CCN1CC[C@]23c4c5ccc(O)c4O[C@H]2[C@@H](OCCOCCOCCOC)CC[C@@]3(O)[C@H]1C5", "experimental system": "μ-Opiate Receptors (Homo sapiens)", "class": "no (0)"}
{"compound": "C=CCN1CCC23c4c5ccc(O)c4OC2C(O)CCC3(O)C1C5 (single isomer, unassigned) [α-6-naloxol, reference compound]", "experimental system": "μ-Opiate Receptors (Homo sapiens)", "class": "yes (1)"}
{"compound": "C=CCN1CCC23c4c5ccc(O)c4OC2C(O)CCC3(O)C1C5 (single isomer, unassigned) [β-6-naloxol, reference compound]", "experimental system": "μ-Opiate Receptors (Homo sapiens)", "class": "no (0)"}
{"compound": "C=CCN1CC[C@]23c4c5ccc(O)c4O[C@H]2[C@H](OCCOCCOCCOCCOCCOC)CC[C@@]3(O)[C@H]1C5", "experimental system": "μ-Opiate Receptors (Homo sapiens)", "class": "no (0)"}
{"compound": "C=CCN1CC[C@]23c4c5ccc(O)c4O[C@H]2C(OCCOCCOCCOC)CC[C@@]3(O)[C@H]1C5 (some centres unmarked)", "experimental system": "μ-Opiate Receptors (Homo sapiens)", "class": "no (0)"}

----------
Experiment: Oral bioavailability: plasma concentration after oral gavage
Assay type: in vivo, Sprague Dawley rats
Conditions: rats, 1 hr, PEGylated compounds normalized to 1 mg/kg dose

{"compound": "C=CCN1CC[C@]23c4c5ccc(O)c4O[C@H]2[C@H](OCCOCCOCCOCCOCCOCCOCCOC)CC[C@@]3(O)[C@H]1C5 [β-PEG7-Nal, α,β-6-CH3—(OCH2CH2)7—O-naloxol]", "Mean Plasma Concentration ± SD, 1 hr [ng/mL]": 50.41}
{"compound": "C=CCN1CC[C@]23c4c5ccc(O)c4O[C@H]2[C@H](OCCOCCOCCOCCOCCOC)CC[C@@]3(O)[C@H]1C5 [α-PEG5-Nal, α,β-6-CH3—(OCH2CH2)5—O-naloxol]", "Mean Plasma Concentration ± SD, 1 hr [ng/mL]": 27.37}
{"compound": "C=CCN1CC[C@]23c4c5ccc(O)c4O[C@H]2[C@H](OCCOCCOCCOCCOCCOC)CC[C@@]3(O)[C@H]1C5 [β-PEG5-Nal, α,β-6-CH3—(OCH2CH2)5—O-naloxol]", "Mean Plasma Concentration ± SD, 1 hr [ng/mL]": 69.34}

----------
Assay: In situ brain perfusion, blood-brain barrier uptake
Settings: normalized to 5 μM dosing solution, 20 mL/min perfusion rate, 30 sec

{"molecule": "C=CCN1CC[C@]23c4c5ccc(O)c4O[C@H]2[C@H](OCCOCCOCCOCCOCCOC)CC[C@@]3(O)[C@H]1C5 [PEG5-Nal, α,β-6-CH3—(OCH2CH2)5—O-naloxol]", "Normalized Brain Uptake Rate (Mean ± SD) (pmole/gm brain/sec)": 0.96}
{"molecule": "COCCOCCOCCOCCOCCNC(=O)\\C=C(C)/C=C/C=C(C)/C=C/C1=C(C)CCCC1(C)C [PEG5-13-cis-RA, CH3—(OCH2CH2)5—NH-13-cis-retinamide]", "Normalized Brain Uptake Rate (Mean ± SD) (pmole/gm brain/sec)": 58.49}
{"molecule": "COCCOCCOCCOCCOCCOCCOCCOCCOCCOCCOCCNC(=O)\\C=C(C)/C=C/C=C(C)/C=C/C1=C(C)CCCC1(C)C [PEG11-13-cis-RA, CH3—(OCH2CH2)11—NH-13-cis-Retinamide]", "Normalized Brain Uptake Rate (Mean ± SD) (pmole/gm brain/sec)": 17.77}

----------
Assay: Lung residence after intratracheal administration (BAL, BAL cells, residual lung, serum)
Type: in vivo, rats
Details: rat, combined lung compartments, other: intratracheal (IT), 30 μg, rat IT, combined lung compartments; read-out: Lung t1/2-el (converted)

{"compound": "O=C1OC2(c3ccc(O)cc3Oc3cc(O)ccc32)c2ccccc21 [Sodium fluorescein, sodium fluorescein]", "half-life": "30.1 min"}

----------
Assay: Oral bioavailability: plasma concentration after oral gavage
Format: in vivo, Sprague Dawley rats
Details: rats, 1 hr, PEGylated compounds normalized to 1 mg/kg dose
Description: Female Sprague Dawley® rats (150-200 g) were obtained from Harlan Labs. […] The animals were fasted overnight (day −1), but water was provided ad libitum. On the morning of dosing (day 0), each rat was weighed and the cannulas flushed with heparin (1000 U/mL). With the aid of a feeding tube, the animals were then dosed orally (gavage) with aqueous formulations containing either the PEGylated or the free drug. The dose was determined on a mg/kg body weight basis. […]

{"compound": "C=CCN1CC[C@]23c4c5ccc(O)c4O[C@H]2[C@@H](OCCOCCOCCOC)CC[C@@]3(O)[C@H]1C5", "Mean Plasma Concentration ± SD, 1 hr / ng/mL": 37.28}
{"compound": "C=CCN1CC[C@]23c4c5ccc(O)c4O[C@H]2[C@H](OCCOCCOCCOCCOCCOCCOCCOC)CC[C@@]3(O)[C@H]1C5 [α-PEG7-Nal, α,β-6-CH3—(OCH2CH2)7—O-naloxol]", "Mean Plasma Concentration ± SD, 1 hr / ng/mL": 40.08}
{"compound": "C=CCN1CC[C@]23c4c5ccc(O)c4O[C@H]2C(OCCOCCOCCOC)CC[C@@]3(O)[C@H]1C5 (stereo partly drawn)", "Mean Plasma Concentration ± SD, 1 hr / ng/mL": 53.79}

----------
Molecular target: Mu-opiate (Homo sapiens)
Sequence (P35372 whole entry): as the sequence (P35372 whole entry) above
Conditions: read-out: IC50, Mu-opiate binding activity
Reported values of IC50 for individual entries
result type: IC50

{"compound": "C=CCN1CC[C@]23c4c5ccc(O)c4O[C@H]2C(OCCOCCOCCOC)CC[C@@]3(O)[C@H]1C5 (stereo partly drawn)", "result type": "IC50", "recorded measurement": "31.7 nM"}
{"compound": "C=CCN1CC[C@]23c4c5ccc(O)c4O[C@H]2[C@H](OCCOCCOCCOCCOCCOC)CC[C@@]3(O)[C@H]1C5", "result type": "IC50", "recorded measurement": "31.5 nM"}
{"compound": "C=CCN1CC[C@]23c4c5ccc(O)c4O[C@H]2[C@@H](OCCOCCOCCOC)CC[C@@]3(O)[C@H]1C5", "result type": "IC50", "recorded measurement": "7.3 nM"}

----------
Experiment: Oral bioavailability: plasma concentration after oral gavage
Type: in vivo, Sprague Dawley rats
Conditions: rats, 2 hr, PEGylated compounds normalized to 1 mg/kg dose

{"compound": "C=CCN1CC[C@]23c4c5ccc(O)c4O[C@H]2[C@H](OCCOCCOCCOCCOCCOC)CC[C@@]3(O)[C@H]1C5 [α-PEG5-Nal, α,β-6-CH3—(OCH2CH2)5—O-naloxol]", "units of measure": "ng/mL", "Mean Plasma Concentration ± SD, 2 hr": 15.38}
{"compound": "C=CCN1CC[C@]23c4c5ccc(O)c4O[C@H]2C(OCCOCCOCCOC)CC[C@@]3(O)[C@H]1C5 (stereo partly drawn)", "units of measure": "ng/mL", "Mean Plasma Concentration ± SD, 2 hr": 22.47}
{"compound": "C=CCN1CC[C@]23c4c5ccc(O)c4O[C@H]2[C@H](OCCOCCOCCOCCOCCOCCOCCOC)CC[C@@]3(O)[C@H]1C5 [α-PEG7-Nal, α,β-6-CH3—(OCH2CH2)7—O-naloxol]", "units of measure": "ng/mL", "Mean Plasma Concentration ± SD, 2 hr": 39.51}
{"compound": "C=CCN1CC[C@]23c4c5ccc(O)c4O[C@H]2[C@H](OCCOCCOCCOCCOCCOCCOCCOC)CC[C@@]3(O)[C@H]1C5 [β-PEG7-Nal, α,β-6-CH3—(OCH2CH2)7—O-naloxol]", "units of measure": "ng/mL", "Mean Plasma Concentration ± SD, 2 hr": 50.08}
{"compound": "C=CCN1CC[C@]23c4c5ccc(O)c4O[C@H]2[C@@H](OCCOCCOCCOC)CC[C@@]3(O)[C@H]1C5", "units of measure": "ng/mL", "Mean Plasma Concentration ± SD, 2 hr": 14.92}
{"compound": "C=CCN1CC[C@]23c4c5ccc(O)c4O[C@H]2[C@H](OCCOCCOCCOCCOCCOC)CC[C@@]3(O)[C@H]1C5 [β-PEG5-Nal, α,β-6-CH3—(OCH2CH2)5—O-naloxol]", "units of measure": "ng/mL", "Mean Plasma Concentration ± SD, 2 hr": 36.92}

----------
Molecular target: Mu-opiate (Homo sapiens)
Settings: naloxone series of compounds; read-out: IC50, Mu-opiate binding activity
pIC50: −log10 of the molar value.

{"molecule": "C=CCN1CC[C@]23c4c5ccc(O)c4O[C@H]2[C@@H](OCCOCCOCCOCCOCCOCCOCCOCCOCCOC)CC[C@@]3(O)[C@H]1C5 (single isomer, unassigned) [α isomer of PEG9-Nal]", "pIC50": 7.19}
{"molecule": "C=CCN1CC[C@]23c4c5ccc(O)c4O[C@H]2[C@H](OCCOCCOCCOCCOCCOC)CC[C@@]3(O)[C@H]1C5 [β-PEG5-Nal, α,β-6-CH3—(OCH2CH2)5—O-naloxol]", "pIC50": 7.36}
